# GI50 per record follows
Test system: HCT-116 colon
Measurement protocol: NCI tumour cell line growth inhibition, 48 h
Reported metric: GI50

INSERT INTO measurements (compound, study_system, reported_metric, readout_value) VALUES
  ('CC(C)(Cl)CCC1=C(Cl)C(=O)c2ccccc2C1=O', 'HCT-116 colon', 'GI50', '1590 nM'),
  ('CCc1ccc(C2=C/C(=C/c3ccc(Cl)cc3)C(=O)N2CCc2ccc(S(N)(=O)=O)cc2)cc1', 'HCT-116 colon', 'GI50', '1740 nM'),
  ('CCCCCCN(CCCCCC)C(=N)c1ccnc2ccccc12', 'HCT-116 colon', 'GI50', '1940 nM'),
  ('C#C[C@@]1(O)[C@@H](CO)O[C@@H](n2cc(Cl)c3c(N)ncnc32)[C@@H]1O', 'HCT-116 colon', 'GI50', '22.1 nM'),
  ('COc1ccc(OC)c(/C=C/c2nnc(Nc3ccc(Cl)cc3)o2)c1', 'HCT-116 colon', 'GI50', '2970 nM'),
  ('CCC[CH2][Sn]1([CH2]CCC)[O]C(c2ccccn2)S(=O)(=O)[O]1 (stereo not given)', 'HCT-116 colon', 'GI50', '11000 nM'),
  ('O=C1C(=O)c2cc([N+](=O)[O-])ccc2-c2ccccc21', 'HCT-116 colon', 'GI50', '1430 nM'),
  ('CC[O-].CC[O-].[O-]c1ccccc1C=Nc1ccccc1.[O-]c1ccccc1C=Nc1ccccc1.[Ti+4]', 'HCT-116 colon', 'GI50', '31800 nM'),
  ('COc1cccc(-c2nn(-c3ccccc3)cc2-c2ccnc(NCCNS(=O)(=O)c3ccc(C(F)(F)F)cc3)c2)c1', 'HCT-116 colon', 'GI50', '3270 nM'),
  ('CCCCCCCCN(CCCCCCCC)C(=N)c1ccnc2ccccc12', 'HCT-116 colon', 'GI50', '1240 nM');

====

Test system: MOLT-4 leukemia
Measurement protocol: NCI tumour cell line growth inhibition, 48 h
# TGI per record follows
Reported metric: TGI

INSERT INTO measurements (compound, readout_value) VALUES
  ('C1COC2SC3=C(SC(=C4SC5=C(SCCS5)S4)S3)SC2O1 (centres undefined)', '> 100 µM'),
  ('COc1cc(-c2c[nH]c3ccccc23)nc(-c2c[nH]c3ccccc23)n1', '15.3 µM'),
  ('O=C1CN(c2cccc(C(F)(F)F)c2)C(=O)CN1NCNN1CC(=O)N(c2cccc(C(F)(F)F)c2)CC1=O', '> 100 µM'),
  ('CCOC(=O)C12CCCC1(O)N(NC(=O)c1cccc(Cl)c1)C(C)=C2C(=O)OC (centres undefined)', '> 100 µM'),
  ('CSc1ccc(-c2cn3ccsc3n2)c(O)c1', '> 100 µM'),
  ('O=C(O)C(=O)Cc1ccc2c(c1)OCO2', '> 100 µM'),
  ('C[C@]12CCC3c4ccc(OC(=O)c5ccccc5)cc4CC[C@H]3C1CC[C@@H]2OC(=O)C12OC1CCC2=O (some centres undefined)', '5.78 µM'),
  ('Cc1[nH]c2c(C)ccc(C)c2c1CC(=O)O', '54.1 µM'),
  ('C=CCNC1=C2C[C@@H](C)C[C@@H](OC)[C@H](OC(=O)CN(C)C)[C@H](C)/C=C(\C)[C@@H](OC(N)=O)[C@H](OC)/C=C\C=C(/C)C(=O)NC(=CC1=O)C2=O', '> 41.6 µM');
